experimental_system: T1, Human soluble IL-6R (human, UniProt P08887 20-358)
T1 construct: Soluble recombinant form; biotinylated in some assays; also called hIL-6R; human IL-6R
T1 sequence (looked up): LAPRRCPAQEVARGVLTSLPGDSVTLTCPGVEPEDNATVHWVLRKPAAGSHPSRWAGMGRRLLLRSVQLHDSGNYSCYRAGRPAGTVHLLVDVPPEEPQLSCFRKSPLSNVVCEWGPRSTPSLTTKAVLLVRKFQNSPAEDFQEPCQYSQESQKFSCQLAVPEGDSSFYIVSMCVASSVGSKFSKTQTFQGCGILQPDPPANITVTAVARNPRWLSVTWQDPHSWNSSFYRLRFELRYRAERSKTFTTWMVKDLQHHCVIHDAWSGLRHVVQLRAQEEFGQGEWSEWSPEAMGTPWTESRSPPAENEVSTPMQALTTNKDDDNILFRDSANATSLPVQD
method: Biacore T100, IL-6R covalently coupled
Answer each item with its documented koff.

Query block: I am curious: what koff value has been reported for PMP20A11 (VHH, also called IL6R20A11; IL6R300; not shown: c-myc and (His)6 tags) VHH: EVQLVESGGGLVQPGGSLRLSCAASGSVFKINVMAWYRQAPGKGRELVAGIISGGSTSYADSVKGRFTISRDNAKNTLYLQMNSLRPEDTAVYYCAFITTESDYDLGRRYWGQGTLVTVSS ?
Result block: 1.9e-05 s⁻¹

Query block: Could you do the same for PMP21A10 (VHH, not shown: c-myc and (His)6 tags) VHH: EVQLVESGGGLVQPGGSLRLSCAASGSIFKINVMAWYRQAPGKGRELVAGIVTGGSTSYADSVKGRFTISRDNAKNTLYLQMNSLRPEDTAVYYCAFITTESDYDLGRRYWGQGTLVTVSS , please?
Result block: 1.2e-05 s⁻¹

Query block: Try this binder too: PMP21D11 (VHH, not shown: c-myc and (His)6 tags) VHH: EVQLVESGGGLVQPGGSLRLSCAASGSVFKINVMAWYRQAPGKGRELVAGIVTGGSTSYADSVKGRFTISRDNAKNTLYLQMNSLRPEDTAVYYCAFITTESDYDLGRRYWGQGTLVTVSS
Result block: 3.5e-05 s⁻¹

Query block: What do you get for PMP20F6 (VHH, not shown: c-myc and (His)6 tags) VHH: EVQLVESGGGLVQPGGSLRLSCAASGSVFKINVMAWYRQAPGKGRELVAGIVSGGSTSYADSVKGRFTISRDNAKNTLYLQMNSLRPEDTAVYYCAFITTNSDYDLGRRYWGQGTLVTVSS ?
Result block: 3.3e-05 s⁻¹
